method_description: RP, Waters ACQUITY UPLC BEH C8, 100 × 2.1 mm, 1.7 µm, 50 °C, 0.35 mL/min, estimated dead time 0.63 min; A: water + 0.1% formic acid; B: acetonitrile + 0.1% formic acid; gradient (min/%B) 0/5 1/5 24/100 28/100
applied_conditions: stereoisomer not certain
# strict inequality: LC retention time < 10 min yields True, everything else yields False

[in] Hi there! Is LC retention time for CCCCCCCCCCCCCCCC(O)C(N)CO (centres undefined) below 10 min, do you know?
[out] False

[in] Given the entry CCCCCCC(N)C(=O)O (centres undefined) , would its reported LC retention time be below 10 min?
[out] True

[in] In the record for CCCCCC=CCCC(=O)OC(CC(=O)O)C[N+](C)(C)C (centres undefined) , is LC retention time less than 10 min?
[out] True

[in] Strictly below 10 min in LC retention time? `CCn1cc(C(=O)O)c(=O)c2ccc(C)nc21`
[out] True

[in] Threshold test, LC retention time < 10 min: `CCCCCCC=CCCCCCCCCCC(=O)O`
[out] False

[in] Determine whether this molecule shows LC retention time lower than 10 min (ties excluded): CCCCCCCCCCCCCC(=O)OC(CC(=O)O)C[N+](C)(C)C (centres undefined)
[out] False

[in] Does the reported LC retention time of the following molecule sit strictly below 10 min? `NCCc1c[nH]c2ccc(O)cc12`
[out] True

[in] Determine whether this molecule shows LC retention time lower than 10 min (ties excluded): CCCCCCC=CCCCCCCCCCC(=O)OC(CC(=O)O)C[N+](C)(C)C (centres undefined)
[out] False

[in] Record CCCCCCC=CCCCCCCCCCCOCC(O)COP(=O)([O-])OCC[N+](C)(C)C (centres undefined) : is its LC retention time strictly below 10 min?
[out] False

[in] Does the reported LC retention time of the following molecule sit strictly below 10 min? CC(C)CC(NC(=O)C1CCCN1)C(=O)O (centres undefined)
[out] True

[in] Hello, I'm reviewing records and need to know if LC retention time of O=C(O)C(O)c1ccc(O)c(O)c1 (centres undefined) is below 10 min. Could you check?
[out] False

[in] Is LC retention time of CC(C)NCC(O)COc1ccc(CC(N)=O)cc1 (centres undefined) strictly below 10 min?
[out] True

[in] Here's an entry: CCCCCCCCCCCCCC=CC(O)C(N)COP(=O)(O)O (centres undefined) . Is its LC retention time below 10 min?
[out] False

[in] Does the reported LC retention time of CCCCC=CCCC(=O)OC(CC(=O)O)C[N+](C)(C)C (centres undefined) stay below 10 min?
[out] True

[in] Here's an entry: CC(C)CC(NC(=O)CCC([NH3+])C(=O)[O-])C(=O)[O-] (centres undefined) . Is its LC retention time below 10 min?
[out] True

[in] State whether 10 min exceeds LC retention time recorded for CCCCCCCCCCCCCCC(=O)OC(CC(=O)O)C[N+](C)(C)C (centres undefined) .
[out] False

[in] Please state whether LC retention time is below 10 min for CCCCCCCCCCCCCCC=CCCCCCCCCCC(=O)OC(CC(=O)O)C[N+](C)(C)C (centres undefined)
[out] False

[in] API: query returns whether the molecule falls strictly under 10 min in LC retention time. Query: `NN1CCOC1=O`
[out] True

[in] Please state whether LC retention time is below 10 min for `Cn1c(=O)[nH]c2ncn(C)c2c1=O`
[out] True

[in] I'd appreciate it if you could check whether O=C(O)C(O)Cc1c[nH]c2ccccc12 (centres undefined) has LC retention time smaller than 10 min.
[out] True

[in] Please let me know if O=C(O)C1CCCN1 (centres undefined) shows LC retention time below 10 min.
[out] True

[in] LC retention time strictly < 10 min for this molecule? O=CCC(O)C(O)C(O)CO (centres undefined)
[out] True

[in] I'd appreciate it if you could check whether `CCCCCC=CCC=CCC=CCC=CCCCC(=O)O` has LC retention time smaller than 10 min.
[out] False

[in] Please indicate whether the reported LC retention time of `CC(C)CCCCCOC(=O)c1ccccc1C(=O)OCCCCCC(C)C` is strictly below 10 min.
[out] False

[in] Determine if `CCCCCCCCC=CCCCCCCCC(=O)NCCO` shows LC retention time strictly lower than 10 min.
[out] False

[in] Would you kindly verify if LC retention time of `Oc1ccc2[nH]ccc2c1` is strictly less than 10 min?
[out] True

[in] Dear colleague, could you confirm whether LC retention time of NC(Cc1ccccc1)C(=O)N1CCCC1C(=O)O (centres undefined) falls below 10 min? Thanks.
[out] True

[in] I'd appreciate it if you could check whether CCCCCCCCC=CCC=CCCC(=O)OC(CC(=O)O)C[N+](C)(C)C (centres undefined) has LC retention time smaller than 10 min.
[out] False

[in] Bench note: check whether CCCCC(=O)OC(CC(=O)O)C[N+](C)(C)C (centres undefined) shows LC retention time below 10 min
[out] True

[in] For `CCC=CCC=CCC=CCCCCCCCC(=O)O` , is the recorded LC retention time below the cut-off of 10 min?
[out] False

[in] Field: below-cutoff. Rule: recorded LC retention time strictly less than 10 min. Subject: `CCC=CCC=CCC=CCC=CCC=CCCCC(=O)O`
[out] False

[in] Lab log: compare recorded LC retention time with 10 min; is it strictly lower for CC(CCC(=O)O)C1CCC2C3CCC4CC(O)CCC4(C)C3CC(O)C12C (centres undefined) ?
[out] False

[in] For CCCCCCCCCCCCCCCCCCCCCCCCCC(=O)OC(CC(=O)O)C[N+](C)(C)C (centres undefined) , is the recorded LC retention time below the cut-off of 10 min?
[out] False

[in] Does C[N+](C)(C)CC(O)CC(=O)[O-] (centres undefined) have LC retention time strictly under 10 min?
[out] True

[in] Lab note: LC retention time threshold 10 min. Does this molecule come in strictly under it? CCCCC=CCCCCCCC(=O)OC(CC(=O)O)C[N+](C)(C)C (centres undefined)
[out] False

[in] Hi there! Is LC retention time for `O=Cc1ccc(O)cc1` below 10 min, do you know?
[out] True

[in] Quick check: LC retention time of CCCCCCCCCCCCCCCC(=O)OCC(O)COP(=O)([O-])OCC[N+](C)(C)C (centres undefined) under 10 min?
[out] False

[in] A record lists CCCCCCCCCCCCCCCCCCCCCC(=O)OC(CC(=O)O)C[N+](C)(C)C (centres undefined) . Is its LC retention time below 10 min?
[out] False

[in] Problem: For the molecule CCCC=CCCC(=O)OC(CC(=O)O)C[N+](C)(C)C (centres undefined) , is LC retention time under 10 min?
[out] True

[in] Below 10 min on LC retention time? Entry CCCCCCCCC(=O)OC(CC(=O)O)C[N+](C)(C)C (centres undefined)
[out] True

[in] Input `CCCCCCCCOC(=O)c1ccccc1C(=O)OCCCCCCCC` ; condition: LC retention time strictly below 10 min. Does it hold?
[out] False

[in] Just wondering, is LC retention time of CCCCCCCCC=CCCCCCCCCCC(=O)OC(CC(=O)O)C[N+](C)(C)C (centres undefined) below 10 min?
[out] False

[in] For `CCCCCCCCCCCCCCCC(=O)NCCO` , is the recorded LC retention time below the cut-off of 10 min?
[out] False

[in] # TODO verify LC retention time < 10 min strictly for this molecule: CCCCCCCCCCCCCCCCCCOCC(O)COP(=O)([O-])OCC[N+](C)(C)C (centres undefined)
[out] False

[in] Does `CCCCCC=CCC=CCC=CCCCCCCC(=O)O` have LC retention time strictly under 10 min?
[out] False

[in] LC retention time under 10 min? Item: CCCCC=CCCCCCCCC(=O)OC(CC(=O)O)C[N+](C)(C)C (centres undefined)
[out] False

[in] # TODO verify LC retention time < 10 min strictly for this molecule: `CC(=O)CCC=C(C)CCC=C(C)CCC=C(C)C`
[out] False

[in] hey, is LC retention time for CC(C)CCCC(C)C1CCC2C3CCC4=CC(=O)CCC4(C)C3CCC12C (centres undefined) lower than 10 min or not?
[out] False
